- Read-out: TIMP metallopeptidase inhibitor 1 (TIMP1), TIMP1 (gene 7076)
- Measurement description: BSK_hDFCGF_TIMP1: BioMAP Diversity Plus: hDFCGF Assay for TIMP metallopeptidase inhibitor 1 (TIMP1) Biomarker Activity (AID 2283062)
- Test settings: primary human foreskin fibroblasts; actives raise or lower the signal
Calls of active or inactive are those of the source. Rule for the calls: active = hit-call score of the fitted dose curve at least 0.9, where 1 is the maximum; inactive = score below 0.9.
# valid calls are active, inactive; nothing else

Study these solved cases before continuing.
C=CN1CCCC1=O ... inactive
Cc1ccc(S(=O)(=O)NC(=O)NN2CCCCCC2)cc1 ... inactive
OC[C@H]1O[C@@H]2O[C@H]3[C@H](O)[C@@H](O)[C@@H](O[C@H]4[C@H](O)[C@@H](O)[C@@H](O[C@H]5[C@H](O)[C@@H](O)[C@@H](O[C@H]6[C@H](O)[C@@H](O)[C@@H](O[C@H]7[C@H](O)[C@@H](O)[C@@H](O[C@H]1[C@H](O)[C@H]2O)O[C@@H]7CO)O[C@@H]6CO)O[C@@H]5CO)O[C@@H]4CO)O[C@@H]3CO ... inactive
OC[C@H]1O[C@@](CO)(O[C@H]2O[C@H](CO)[C@@H](O)[C@H](O)[C@H]2O)[C@@H](O)[C@@H]1O ... inactive
COCc1nnc(-c2ccc[n+]([O-])c2)n1-c1c(Cl)c(Cl)cc2[nH]c(=O)c(=O)[nH]c12 ... inactive
CCCCOC(=O)c1ccccc1 ... inactive
CC(=O)c1ccccc1 ... inactive
CC1(C)C(=O)N(Cl)C(=O)N1Cl ... inactive

Given COc1cc(C(C)C)c2c(c1)S(=O)(=O)N(COc1cc(=O)n3cccc(OCCN4CCCCC4)c3n1)C2=O , state the outcome it received in this test.
inactive

Given CCN(CC)C(=S)SSC(=S)N(CC)CC , state the outcome it received in this test.
active
